- PROTOCOL_TEXT: soluble on expression in E. coli; label from the status in PepcDB or PDB records

{"SEQUENCE_TEXT": "SSQQIYGVKYGNVTFHVPSNQPLKEVLWKKQKDKVAELENSEFRAFSSFKNRVYLDTKSGSLTIYNLTSSDEDEYEMESPNITDSMKFFLYVGES", "soluble on expression in E. coli": "soluble"}
{"SEQUENCE_TEXT": "KILDACCGSRMFWFDKQNDQVLFMDNRKHYEKLESGHIVAVNPNIVADFRKMPFDDNSFYHVVFDPPHLLRAGSNSWLAKKYGKLNEQTWKEDIQKGFSECMRVLKPNGTLVFKWNEDQIKLSEILSIIDYEPLYGNKRAKTHWLVFMKESEENESNG", "soluble on expression in E. coli": "soluble"}
{"SEQUENCE_TEXT": "MSLAEQIEFDQAHLTLQEITEALDNGRFVHVRRQLQDMEPEDIAHLLEASPRKAREVLWQLTDPEDYGEILDELNEDVKDALVSKMAPEKLAEATEGMDIDDVAYVLRSLPDDVSREVLSQMDAADRMRVETALSYPEDTAGGLMNTDVITIRADVDVDVVLRYLRMKGELPEATDALYVIDDESKLIGHLSLVTLLTTQPDVPVSEVMDDADEAIKVDMKDSDIANLFERRNWVSAPVVDENQHLVGRITIDDVVDIIREDAEHSMMSMAGMDDDEDTFAPEGHHHHHH", "soluble on expression in E. coli": "soluble"}
{"SEQUENCE_TEXT": "MMKRARIIYNPTSGRELFKRHLPDVLVRLEKAGYETSCHATEGPGDATKAARQAVLREFDLVVAAGGDGTINEVVNGIADQPYRPKLGVIPVGTTNDFARAIGVPRSIEGACEVIATGEPVPIDIGCVTNEDKTRYFINIAGGGRLTELTYEVPSKLKTMLGQLAYYLKGIEMLPSIKATEAQIEYDGKLFEGEIMMFLVSLTNSVGGFEKLAPDSSLNDGLFDFIIVKKTNLAEFIRLVTLAARGEHINDPHIIYTKANRVKVRSPMQLNLDGEFGGMLPGEFVNLYRHLEVIMPKDKAEQVRTGR", "soluble on expression in E. coli": "not soluble"}
{"SEQUENCE_TEXT": "MGSDKIHHHHHHMPTRVIEDKGDMTPSFGIDDRIFLGEGLFETIRVNSSKPSFAYMHWERLGNSARQLGIPFEISFDDWFEHLIQKIQKDNLYHGGIKAILSGGPASRGLAERGQVSQLIFQTFNYSIQKHPVRLISINWLRDKANPLYQLKSVNYLEAIIAQRQAIAVGADDALFFNTENHVTETTCANLFLIENNILYTPRVEDGILPGITRARLISHCQQHKMSVQEISLTKKRIEDADAVFLTNSLQGIRRVLSLDNIIFEVNHPIIDKLIFLLNQDES", "soluble on expression in E. coli": "not soluble"}
{"SEQUENCE_TEXT": "SEKTQETVQRILLEPYKYLLQLPGKQVRTKLSQAFNHWLKVPEDKLQIIIEVTEMLHNASLLIDDIEDNSKLRRGFPVAHSIYGIPSVINSANYVYFLGLEKVLTLDHPDAVKLFTRQLLELHQGQGLDIYWRDNYTCPTEEEYKAMVLQKTGGLFGLAVGLMQLFSDYKEDLKPLLNTLGLFFQIRDDYANLHSKEYSENKSFCEDLTEGKFSFPTIHAIWSRPESTQVQNILRQRTENIDIKKYCVHYLEDVGSFEYTRNTLKELEAKAYKQIDARGGNPELVALVKHLSKMFKEENE", "soluble on expression in E. coli": "soluble"}
{"SEQUENCE_TEXT": "MTYGYPKKWKENMTSGQVIAAELRLGIVSGEIESHIQLSENQVAQQFNVSRSPVRDAFKLLQTDQLIQLERMGAQVLPFGDQEKKEMYDLRLMLESFAFSKLSGTDTQHIIKEMKKQLEMMKVAVQFEDAEAFTQHDFEFHEVMIQATNHQYLKVFWNHLKPVMESLILISMRQRMANDPKDFERIHKNHQVFIDAVENDDASILRKAFHLNFDDVGENIEAFWLR", "soluble on expression in E. coli": "not soluble"}
{"SEQUENCE_TEXT": "GSHMGFLSGKRILVTGVASKLSIAYGIAQAMHREGAELAFTYQNDKLKGRVEEFAAQLGSDIVLQCDVAEDASIDTMFAELGKVWPKFDGFVHSIGFAPGDQLDGDYVNAVTREGFKIAHDISSYSFVAMAKACRSMLNPGSALLTLSYLGAERAIPNYNVMGLAKASLEANVRYMANAMGPEGVRVNAISAGPIRTLAASGIKDFRKMLAHCEAVTPIRRTVTIEDVGNSAAFLCSDLSAGISGEVVHVDGGFSIAAMNELELK", "soluble on expression in E. coli": "soluble"}
{"SEQUENCE_TEXT": "MGSDKIHHHHHHMKQNVLLQSILIQLNLLKENYSEDTIKNLMDIPKQLTSNTSYKRNVKEVSHVHIAFDDSTAGCLKHMLGQEERLEEMVVAFSEFFSIGPINKLHMNEGQLARKEWLVNNLTSYDCYFEEEYLPRFKETLEVLHSIPNETPITIWKADNAHEHVGLCFVMAQLKDKKNIRVMNTSEASKEILKLEYVIRGTGELPPENLALIQKSFVKLPYLTVENRMQFEHEWDSLSKSTEFLRIWTDNAVRSVQENYFDQFIIECAKSIGADQEFRKAPRVIGEALGLVEQSVGDTFLEYRLKELIKQEVFEFEGSLDEMRFYSVKLRK", "soluble on expression in E. coli": "not soluble"}
{"SEQUENCE_TEXT": "PLKEQKVINTANITTNSKLDLAEYENGLMNIAKEQFDTENHVLQLNQYIPEKLVDELVAKVKAPVLTNIIEQDYFGKQNSNELSLSGVVIGLAMSSSVSNEEALSKGTEVAGQLIEAIHKNGKYNKSPITFAIFKQESTSSLKNGTYIASATVQKNDTNLGNWNAIEEKAYSYPSDEFTQAHGEDNEKINKFAEAMKGFSPGDFIPVNAKVSYKKNQMDTLNMDIVIKYNGKTELMALTQLAAQSMLDQLPKDAKVQLQIKSENKIEAIVIKEKNSDKPFVSFL", "soluble on expression in E. coli": "soluble"}
{"SEQUENCE_TEXT": "GMADIDQASKTEMEAAAFRHLLRHLDEHKDVQNIDLMIQADFCRNCLAKWLMEAATEQGVELDYDGAREYVYGMPFAEWKTLYQKPASEAQLAAFEAKQAARKR", "soluble on expression in E. coli": "soluble"}
{"SEQUENCE_TEXT": "MDFYYLPGSAPCRAVQMTAAAVGVELNLKLTDLMKGEHMKPEFLKLNPQHCIPTLVDNGFALWESRAIQIYLAEKYGKDDKLYPKDPQKRAVVNQRLYFDMGTLYQRFADYHYPQIFAKQPANPENEKKMKDAVGFLNTFLEGQEYAAGNDLTIADLSLAATIATYEVAGFDFAPYPNVAAWFARCKANAPGYALNQAGADEFKAKFLS", "soluble on expression in E. coli": "soluble"}

----------
- PROTOCOL_TEXT: soluble on expression in E. coli; label from the status in PepcDB or PDB records
READOUT_TYPE: soluble on expression in E. coli

{"SEQUENCE_TEXT": "MGSDKIHHHHHHMGYKNILIDFDDTIVDFYDAEEWAFHYMANVFNHKATKDDFLTFKKINHQHWEAFQQNKLTKSEVLSERFVNYFKHHQMEVDGHRADVLFRNGLAEAKVKYFDQTLETIVELSKRHDLYIVTNGVTETQKRRLNQTPLHKYIKKIFISEETGYQKPNPEFFNYVFNDIGEDERQHSIIVGDSLTSDILGGINAGIATCWFNFRGFDHNPGIIPDYEINSWKQLNDIVR", "VALUE_REPORTED": "not soluble"}
{"SEQUENCE_TEXT": "MILFDYKLLAALAAVVEQGGFERAAQALGLSQSAVSQRIKLLEARVGQPVLVRETPPHPTDLGRRLLNHVQQVRLLEGDLQRWVPNLDEGGAPERLRIALNADSLATWWAAAVGDFCAERRVLLDLVVEDQEVGLKRMRAGEVAGCVCGSARPVAGARSLLLGAMRYRGLASPDFIARHFPRGVEAAALAGVPAIVFGPDDLLQHRFLKDLGVEGGFIHHLCPSSEGFVRLTAGGLGWGLVPERQVQGELARGELVELLPGQVIDVPLYWHYWRNGGELLASLTEHLLARAGDGLVRVSG", "VALUE_REPORTED": "not soluble"}
{"SEQUENCE_TEXT": "MAMSFEWPWQYRFPPFFTLQPNVDTRQKQLAAWCSLVLSFCRLHKQSSMTVMEAQESPLFNNVKLQRKLPVESIQIVLEELRKKGNLEWLDKSKSSFLIMWRRPEEWGKLIYQWVSRSGQNNSVFTLYELTNGEDTEDEEFHGLDEATLLRALQALQQEHKAEIITVSDGRGVKFF", "VALUE_REPORTED": "soluble"}
{"SEQUENCE_TEXT": "PRKASRKPPREESSATCVLEQPGALGAQILLVQRPNSGLLAGLWEFPSVTWEPSEQLQRKALLQELQRWAGPLPATHLRHLGEVVHTFSHIKLTYQVYGLALEGQTPVTTVPPGARWLTQEEFHTAAVSTAMKKVFRVYQGQ", "VALUE_REPORTED": "soluble"}
{"SEQUENCE_TEXT": "MGHHHHHHSHMTATVENLTFQKDTLGNAVDKNRRHGSTEPLVLAWSSQFRRLTWGCALDALHRSPCVAASQHGVTHLIRSSRTPHSTRCRKEDAQPGHHGNGAASVTAQARGQR", "VALUE_REPORTED": "not soluble"}
{"SEQUENCE_TEXT": "MVKLENSRKPEKISNKNIPMSDFVVNLDHGDPTAYEEYWRKMGDRCTVTIRGCDLMSYFSDMTNLCWFLEPELEDAIKDLHGVVGNAATEDRYIVVGTGSTQLCQAAVHALSSLARSQPVSVVAAAPFYSTYVEETTYVRSGMYKWEGDAWGFDKKGPYIELVTSPNNPDGTIRETVVNRPDDDEAKVIHDFAYYWPHYTPITRRQDHDIMLFTFSKITGHAGSRIGWALVKDKEVAKKMVEYIIVNSIGVSKESQVRTAKILNVLKETCKSESESENFFKYGREMMKNRWEKLREVVKESDAFTLPKYPEAFCNYFGKSLESYPAFAWLGTKEETDLVSELRRHKVMSRAGERCGSDKKHVRVSMLSREDVFNVFLERLANMKLIKSIDL", "VALUE_REPORTED": "soluble"}
{"SEQUENCE_TEXT": "GPGSMLHDAPWHLSLAHRCLAPHGVVAIMGYATRVCVVAPEAARRDADDFMEDLQRTAREAAKMKDSKELRVALGRAIDISSSLDAGHADMYFPFRSTKRRWFTSEYAATPAQLAASYRALPEYQLLSREMPRYRQALISGRQKVQVGEETEKDEPVNVFRRQHGAEPLEVLQGCLQAQVMSLHGRNTPAMPPLRVQVRHFIITCSSRSVNAASEPFQLRSLRREIPQLK", "VALUE_REPORTED": "not soluble"}
{"SEQUENCE_TEXT": "MRVSGSASSQDIISRINSKNINNNDSNEVKRIKDALCIESKERILYPQNLSRDNLKQMARYVNNTYVHYSGNCVLLSACLHYNIHHRQDILSSKNTASPTVGLDSAIVDKIIFGHELNQSYCLNSIDEVEKEILNRYDIKRESSFIISAENYIAPIIGECRHDFNAVVICEYDKKPYVQFIDSWKTSNILPSLQEIKKHFSSSGEFYVRAYDEKHD", "VALUE_REPORTED": "not soluble"}
{"SEQUENCE_TEXT": "MSKLQGKKITPMPISAGITVVDLINEYFTAYNSARLREACKLLSQDIFQAGVTVGVSLSGAMTPAGFGVSALAPLIRHGFIDWMISTGANLYHDVHYALGFELFAGSPFLDDVKLREEGTIRIYDIIFGYDVLLETDAFIRKVLQAEPFQKRMGTAEFHYLLGKYVREVEKQLGVQHSCLLATAYEYGVPIYTSSPGDSSIGMNVAALALEGSRLVLDPAIDVNETSAIAYGARETDGKSAAVILGGGSPKNFLLQTQPQIHEVLGLEERGHNFFVQFTDARPDTGGLSGATPAEAVSWGKIDPDELPSTIVCYTDSTIAIPLVTAYVLNQCQARPVKRLYDRREALLETLQKDYLAAKDKPVVKEEGTEEVPSYRCGTPIKR", "VALUE_REPORTED": "not soluble"}
{"SEQUENCE_TEXT": "MVFKSKKDKFSEMLMNVSENLKEGAQFFVEYKIKNASDLKEFSMRMKEYESKGDSFIHEIIMELNKAFITPIEREDILQLAMSMDDVLDGLDHSAGLFEMYSITEADEYMIKFVEAINQCAIEIANSVELMSNKKLVDIRTNAIKIKDYESQCDDIRRHAIKNLFSREKDPIKIIQFKEIYEELEEVADSCQSVANVLETIIMKNALEHHHHHH", "VALUE_REPORTED": "soluble"}
{"SEQUENCE_TEXT": "MKKATCLTDDQRWQSVLARDPNADGEFVFAVRTTGIFCRPSCRARHALRENVSFYANASEALAAGFRPCKRCQPDKANPRQHRLDKITHACR", "VALUE_REPORTED": "soluble"}
{"SEQUENCE_TEXT": "MHRKRERERERERERERERERERERERERERGRDEETSKEKRVTET", "VALUE_REPORTED": "soluble"}
{"SEQUENCE_TEXT": "MNTASLVRSLSRVALRSSQVVRMAAPRHFSQSAKVLSVTPELQQALNREIEAEQQLSSDNLQGAVAPTFAGFQVTNKDAEVRLTKKNGSEDILVVFNVNHSVDMDEGFDDEPSQAVAPVPVAMPPFTVEITKGDQRLCFHLELVPVDDQPDEYDFRVEEFYVAPSAKNGNEDVPSEVYASSGKYIDPDLHDLLFVRYLEERGLDARFCKTLVAYATHYEHSQYVGLLDKIKKFISK", "VALUE_REPORTED": "not soluble"}
